Data credit: PubChem BioAssay AID1159580

test: chemical genetic growth profiling, strain panel (AID 1159580);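 also: tested at 20 µM; growth read once vehicle control cultures reached saturation at 30 °C; 1 = growth at the plate median or of vehicle wells; lower values mean less growth of the strain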; conditions: S. cerevisiae deletion strains, growth OD, locus YHR129C, strain ARP1, stronger effect = lower value
Hit rate of the full screen: of about 5,500 compounds, about 2,000 (36%) were called active. About 18% were inconclusive and are not listed. The list shows a part of the results. Where a SMILES comes first, the peptide text is derived from it.
ENDPOINT LABEL: normalized growth

In: Supply measured normalized growth of `NC1(C(=O)O)CCC1` in your reply.
Out: 0.971 (inactive)

In: Using known records, supply normalized growth for `O=C1CCCN1CC#CCN1CCCC1`
Out: 1 (inactive)

In: Quickly give me recorded normalized growth for `CC(=O)N[C@@H](CCC(=O)O)C(=O)O`
Out: 1 (inactive)

In: Provide one value: measured normalized growth of CCCCCCCCCCCC(=O)OCC(COP(=O)(O)OCC(O)COP(=O)(O)OCC(COC(=O)CCCCCCCCCCC)OC(=O)CCCCCCCCCCC)OC(=O)CCCCCCCCCCC (stereo not given)
Out: 0.902 (active)

In: Supply normalized growth value. Item: `O=NN(CCCl)C(=O)NCCCl`
Out: 0.991 (inactive)

In: Quick one: give measured normalized growth for CC1CCC(NC(=O)N(CCCl)N=O)CC1 (stereo not given)
Out: 0.974 (inactive)

In: Quickly give me recorded normalized growth for CC(=O)N[C@@H](CC(=O)O)C(=O)N[C@@H](CCC(=O)O)C(=O)O (Ac-Asp-Glu-OH)
Out: 1.01 (inactive)

In: Return reported normalized growth. Input compound: `COc1ccc2oc3ccccc3c(=O)c2c1`
Out: 0.897 (active)

In: Specify normalized growth for COc1ccc(CCC(=O)c2c(O)cc(O[C@@H]3O[C@H](CO)C(O)[C@H](O)C3O[C@@H]3O[C@@H](C)[C@H](O)[C@@H](O)[C@H]3O)cc2O)cc1O (stereo not given in full) and stop.
Out: 0.998 (inactive)

In: Recall and state the measured normalized growth for `Cc1onc(-c2ccccc2)c1-c1ccc(S(N)(=O)=O)cc1` .
Out: 1 (inactive)
